# Tested target: T1, PD-1 protein (human, UniProt Q15116 25-167, limits assumed)
# T1 construct: also called human PD-1
# T1 sequence (Q15116 25-167 limits assumed): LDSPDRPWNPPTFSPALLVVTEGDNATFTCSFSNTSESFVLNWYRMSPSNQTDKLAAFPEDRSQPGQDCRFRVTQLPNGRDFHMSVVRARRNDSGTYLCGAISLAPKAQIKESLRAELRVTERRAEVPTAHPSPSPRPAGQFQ
# Assay explanation: blocking ELISA, PD-1 coated, competitor biotin PD-L1
Parameter measured: OD450 of PD-L1 bound, antibody at 0.61 µg/mL (OD450)
Kindly provide the numeric value in OD450 only, without the unit symbol.

Solved cases (2 shown):
1) 504#SS8 (Fc fusion, VHH-FC construct from HEK293 cells; not shown: The (G4S)3 linker leading to it is left out with it) VHH: EVQVVESGGGLVQAGGSLRLSCTASGRTFSNYAMGWFRQAPGKEREFVASVTWGGSGTFYADSVKGRFTISRDNIKNTVYLQMNSLKPEDTAVYYCAADNVGDSWYSDDYKYWGQGTQVTVSS = 3.28
2) 504#SS16 (Fc fusion, not shown: a dimerising Fc or GST; small tags and cut ends, VHH-FC construct from HEK293 cells) VHH: EVQVVESGGGLVQAGGSLRLSCAVSGRTFSSYVMGWFRQAPGKERDFVAAISRSGGRTWYADSVKGRFTISFDNAKNTVYLQMNSLKPEDTASYYCNTDYTFAKLTAPDRRNDDWGQGTQVTVSS = 3.35

# input binder: 504#SS30 (Fc fusion, not shown: a dimerising Fc or GST; small tags and cut ends, VHH-FC construct from HEK293 cells) VHH: EVQLVETGGGLVQAGGSLRLACEVSGRTFSSYAMGWFRQAPGREREFVASIRVSGGITDYADSVKGRFTISRDNAKDTVYLQMINLKPEDTAVYYCNADISRYRFSRGDYWGKGTLVTVSS ; wanted: its OD450 of PD-L1 bound, antibody at 0.61 µg/mL
3.26

Returns the measured OD450 of PD-L1 bound, antibody at 0.61 µg/mL for the input binder. Input: 504#SS12 (Fc fusion, not shown: a dimerising Fc or GST; small tags and cut ends, VHH-FC construct from HEK293 cells) VHH: EVQVVESGGGLVQPGGSLRLSCAVSGRGFSEHAMGWYRQSPGKQREFVAGVTSYGGTNYADSVKGRFTISRDNVGNTVFLQMNSLKPEDTAVYYCNYKRGHYPDGVSTYEYWGQGTQVTVSS
3.2

Data request, read-out OD450 of PD-L1 bound, antibody at 0.61 µg/mL, for 504#SS2 (Fc fusion, VHH-FC construct from HEK293 cells; not shown: The (G4S)3 linker leading to it is left out with it) VHH: EVQVVESGGGLVKTGDSLRLSCAASGGTISGYEMGWFRQAPGKEREFVAGISRNGRSTGYSDSAKDRFTISRDNAKNTVYLQMNSLKPEDTAVYYCAAGLKADYGDSYVDTSTRNYNYWGQGTQVTVSS
3.23

Endpoint output: OD450 of PD-L1 bound, antibody at 0.61 µg/mL of 504#SS7 (Fc fusion, VHH-FC construct from HEK293 cells; not shown: The (G4S)3 linker leading to it is left out with it) VHH: QVQLVESGGGLVQAGGSLTLSCAASGRTFNSYAMGWFRQAPGKEREFVAAISQNGGSQGYAEAVKDRFTISRDNTNKVVALQMNSLKPEDTAAYYCAADGDASDRSYAPPRDYKYEYWGQGTQVTVSS . Value?
3.35

Cited source for all entries: patent US20230002757A1
